- System: K562 CRISPRi cells
- testDetails: Constant region variant library pooled growth screen, K562
- Assay type: cell-based, human
- conditionDescription: sgRNA constant region variants; activity relative to the original, un-modified constant region cr995
- Description: We calculated relative activities for each targeting sequence:constant region pair by normalizing its phenotype to that of the targeting sequence paired with the unmodified constant region, identifying 409 constant region variants that on average conferred intermediate activity (0.1-0.9, FIG. 5B). Ten variants selected for individual evaluation also mediated intermediate levels of mRNA knockdown (FIG. 6B). […]
Assign Mean relative activity to each entry below.
One number for each entry.

Solved entries (count: 2):
cr639 (nucleic acid, listed as DNA, chemistry not fully specified) guide: GTTTAAGAGCTAAGCTGGAAACAGCATAGCAAGTTTAAATAAGGATATTCCGTTATCAACTTGAAAAAGTGGCACCGAGTCGGTGCT; 0.6057
cr928 (nucleic acid, listed as DNA, chemistry not fully specified) guide: GTTTAAGAGCTAAGCTGGAAACAGCATAGCTAGTTTAAATGAGGCTAGTCCGTAATCAACTTGAAAAAGTGGCACCGAGTCGGTGCT; 0.05583

Need Mean relative activity for each of these molecules.
1. cr911 (nucleic acid, listed as DNA, chemistry not fully specified) guide: GTTTAAGAGCTAAGCTGGAAACAGCATAGCAAGTTTAAATAAGGCACGTCCGTTATCAACTTGAAAAAGTGGCACCGAATCGGTGCT
2. cr266 (nucleic acid, listed as DNA, chemistry not fully specified) guide: GTTTAAGAGCTAAGCTGGAAACAGCATGGCAAGGTTAAATAAGGCGAGTCCGTTATCAACTTGAAAAAGTGGCACCGAGTCGGTGCT

Ans.
[0.8101, 0.005552]
